- tested.system: T1, human LAG-3 protein with hFc tag (hLAG-3-hFc protein) (human, UniProt P18627 23-450)
- T1 construct: also called immunogen 1; LAG-3 extracellular domain protein; not shown: human IgG Fc fragment (hFc) of the pCpC vector
- T1 sequence: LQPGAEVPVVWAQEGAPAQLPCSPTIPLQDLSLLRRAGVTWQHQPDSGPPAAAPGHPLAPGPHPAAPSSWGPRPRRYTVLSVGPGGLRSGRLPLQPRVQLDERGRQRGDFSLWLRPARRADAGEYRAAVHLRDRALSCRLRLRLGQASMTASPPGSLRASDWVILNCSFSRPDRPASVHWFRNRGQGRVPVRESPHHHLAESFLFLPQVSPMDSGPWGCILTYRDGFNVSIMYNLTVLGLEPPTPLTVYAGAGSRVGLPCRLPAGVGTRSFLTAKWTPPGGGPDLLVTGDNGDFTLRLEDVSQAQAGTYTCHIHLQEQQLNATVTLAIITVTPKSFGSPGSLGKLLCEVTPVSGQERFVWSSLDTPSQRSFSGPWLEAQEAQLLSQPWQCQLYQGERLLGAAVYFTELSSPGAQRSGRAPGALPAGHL
- test: FACS, blocks LAG-3-hFc binding to MHC II on Raji; 66.667 nM

>  <binder>
105F1E10 (mouse antibody purified from hybridoma) (antibody, V domains shown, also called mAb009-105F1E10) VH: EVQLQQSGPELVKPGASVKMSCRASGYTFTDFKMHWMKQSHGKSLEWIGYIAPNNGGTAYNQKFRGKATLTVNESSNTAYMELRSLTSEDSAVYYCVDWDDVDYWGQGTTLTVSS VL: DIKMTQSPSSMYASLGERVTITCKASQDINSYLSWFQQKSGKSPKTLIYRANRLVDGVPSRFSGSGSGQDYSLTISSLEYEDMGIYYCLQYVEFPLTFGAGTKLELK

>  <result.unit>
%

>  <Inhibition rate (%)>
93.6

$$$$
>  <binder>
409D4E10 (mouse antibody purified from hybridoma) (antibody, V domains shown, also called mAb112-409D4E10) VH: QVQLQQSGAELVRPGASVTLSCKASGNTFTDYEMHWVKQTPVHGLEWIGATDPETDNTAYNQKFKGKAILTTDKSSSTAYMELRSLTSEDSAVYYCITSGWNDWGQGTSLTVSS VL: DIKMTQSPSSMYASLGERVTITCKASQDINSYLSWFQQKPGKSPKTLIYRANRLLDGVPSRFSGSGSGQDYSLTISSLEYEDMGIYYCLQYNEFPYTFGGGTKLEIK

>  <result.unit>
%

>  <Inhibition rate (%)>
96

$$$$
>  <binder>
405B8H3 (mouse antibody purified from hybridoma) (antibody, V domains shown, also called mAb103-405B8H3; 405B81-13) VH: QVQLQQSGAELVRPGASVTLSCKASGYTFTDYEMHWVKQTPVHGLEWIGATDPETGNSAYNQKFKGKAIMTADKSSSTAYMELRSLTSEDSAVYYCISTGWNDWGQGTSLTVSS VL: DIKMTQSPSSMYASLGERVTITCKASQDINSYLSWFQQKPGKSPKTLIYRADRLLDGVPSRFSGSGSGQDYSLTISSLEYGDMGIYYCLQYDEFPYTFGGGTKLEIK

>  <result.unit>
%

>  <Inhibition rate (%)>
94

$$$$
>  <binder>
556F6B8 (mouse antibody purified from hybridoma) (antibody, V domains shown, also called mAb123-556F6B8) VH: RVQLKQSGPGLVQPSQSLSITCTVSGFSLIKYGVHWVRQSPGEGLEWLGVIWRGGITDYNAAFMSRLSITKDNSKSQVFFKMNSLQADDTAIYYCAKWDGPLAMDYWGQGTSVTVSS VL: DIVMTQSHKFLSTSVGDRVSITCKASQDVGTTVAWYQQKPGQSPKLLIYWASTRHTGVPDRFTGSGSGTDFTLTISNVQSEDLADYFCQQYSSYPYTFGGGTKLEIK

>  <result.unit>
%

>  <Inhibition rate (%)>
95.9

$$$$
>  <binder>
409B11E12 (mouse antibody purified from hybridoma) (antibody, V domains shown, also called mAb104-409B11E12) VH: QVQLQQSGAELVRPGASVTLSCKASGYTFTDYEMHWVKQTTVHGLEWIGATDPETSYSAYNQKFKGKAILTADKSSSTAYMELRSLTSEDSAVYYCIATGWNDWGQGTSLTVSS VL: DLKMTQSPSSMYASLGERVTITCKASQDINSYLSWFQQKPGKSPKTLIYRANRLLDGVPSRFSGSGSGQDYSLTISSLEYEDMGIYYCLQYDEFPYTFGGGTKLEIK

>  <result.unit>
%

>  <Inhibition rate (%)>
95.5

$$$$

The measured values listed here are drawn from patent US20210155689A1.
